Molecular target: HCV polymerase 1B (Δ21 NS5B, BK) (Hepatitis C virus genotype 1b, UniProt P26663)
Construct: 20 to 50 nM Δ21 NS5B
Sequence (P26663 2420-2989, stated change not applied): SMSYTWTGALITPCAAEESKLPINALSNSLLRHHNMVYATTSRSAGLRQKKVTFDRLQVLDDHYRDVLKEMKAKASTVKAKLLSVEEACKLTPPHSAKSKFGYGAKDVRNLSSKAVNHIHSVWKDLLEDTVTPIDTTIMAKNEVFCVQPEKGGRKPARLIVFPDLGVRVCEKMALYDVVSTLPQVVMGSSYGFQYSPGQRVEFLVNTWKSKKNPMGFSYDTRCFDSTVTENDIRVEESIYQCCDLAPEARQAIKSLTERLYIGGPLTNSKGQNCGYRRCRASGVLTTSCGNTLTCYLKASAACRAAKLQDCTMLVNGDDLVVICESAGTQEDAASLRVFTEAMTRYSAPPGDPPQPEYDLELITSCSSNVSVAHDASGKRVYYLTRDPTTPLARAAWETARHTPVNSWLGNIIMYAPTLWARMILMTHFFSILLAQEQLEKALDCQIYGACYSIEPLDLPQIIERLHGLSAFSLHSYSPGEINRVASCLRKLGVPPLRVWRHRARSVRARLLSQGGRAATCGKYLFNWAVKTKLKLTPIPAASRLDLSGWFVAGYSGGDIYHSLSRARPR
Experiment: biochemical
REPORTED_PROPERTY: IC50

* COc1c(C(=O)Nc2ccc(NC(=O)COC(C)=O)cc2)cc(N2CCC(=O)NC2=O)cc1C(C)(C)C | > 1000 nM
* COc1c(C#Cc2cc(F)c(NS(C)(=O)=O)cc2C)cc(N2CCC(=O)NC2=O)cc1C(C)(C)C | 10 to 100 nM
* COc1c(-c2cccc(/C=N/NS(C)(=O)=O)c2)cc(N2CCC(=O)NC2=O)cc1C(C)(C)C | 100 to 1000 nM

Query: Give its IC50 value. Item: COc1c(C(=O)Nc2ccc(NC(=O)OC(C)(C)C)cc2)cc(N2CCC(=O)NC2=O)cc1C(C)(C)C
Response: > 1000 nM
